In this section we review reported Kd values for a set of sequences.
target-system: HLA-A*33:01
experiment-description: IEDB peptide-MHC binding, purified MHC/competitive/radioactivity; filed as Kd, often an IC50 or EC50 that approximates it; bounds were set here for any values at or beyond the usual limits of such assays
test-settings: source organism: SARS coronavirus Tor2
measure: Kd (µM)

chain_sequence=VQMLSDTLK target_system=HLA-A*33:01 cmp=≥ reported=77.7
chain_sequence=AVLQSGFRK target_system=HLA-A*33:01 cmp=≥ reported=77.7
chain_sequence=NVAYNVVNK target_system=HLA-A*33:01 cmp== reported=19.3
chain_sequence=LMPILTLTR target_system=HLA-A*33:01 cmp== reported=15
chain_sequence=AANTVIWDY target_system=HLA-A*33:01 cmp=≥ reported=77.7
chain_sequence=TTEMLSRALK target_system=HLA-A*33:01 cmp== reported=3.91
chain_sequence=TMADLVYALR target_system=HLA-A*33:01 cmp== reported=0.136
